target: JAK1 JH2 pseudokinase (human); experiment: KINOMEscan competition binding; settings: compound 10.0 µM
measurement_type: kinase still bound, per cent of control (%)
Answers are plain numbers, in %.

compound=CCOc1cc2ncc(C#N)c(Nc3ccc(OCc4ccccn4)c(Cl)c3)c2cc1NC(=O)/C=C/CN(C)C result_unit=% recorded_value=100
compound=C[C@@H](Oc1cc(-n2cnc3ccc(CN4CCN(C)CC4)cc32)sc1C(N)=O)c1ccccc1C(F)(F)F result_unit=% recorded_value=92
compound=O=C1Nc2ccc(I)cc2/C1=C/c1cc(Br)c(O)c(Br)c1 result_unit=% recorded_value=0.55
compound=Cc1ccc(C(=O)Nc2cccc(C(F)(F)F)c2)cc1Nc1cncc(C(N)=O)c1 result_unit=% recorded_value=100
compound=Cc1ccc(NC(=O)c2cccc(C(C)(C)C#N)c2)cc1Nc1ccc2ncn(C)c(=O)c2c1 result_unit=% recorded_value=82

Could I get kinase still bound, per cent of control for every one of these entries?
1. C=CC(=O)Nc1cccc(Nc2nc(N[C@H]3CC[C@H](N(C)C)CC3)nc3c2ncn3C(C)C)c1
2. Cc1ccc2nc(NCCN)c3ncc(C)n3c2c1
3. O=C(O)c1ccc(Nc2ncc3c(n2)-c2ccc(Cl)cc2C(c2c(F)cccc2F)=NC3)cc1

1: 76; 2: 47; 3: 80

###

Exercise: state measured kinase still bound, per cent of control for each of the compounds provided.
biological target: CaMK1 (human) (UniProt Q14012); assay: KINOMEscan competition binding; details: compound 10.0 µM
Sequence (Q14012 whole entry, looked up): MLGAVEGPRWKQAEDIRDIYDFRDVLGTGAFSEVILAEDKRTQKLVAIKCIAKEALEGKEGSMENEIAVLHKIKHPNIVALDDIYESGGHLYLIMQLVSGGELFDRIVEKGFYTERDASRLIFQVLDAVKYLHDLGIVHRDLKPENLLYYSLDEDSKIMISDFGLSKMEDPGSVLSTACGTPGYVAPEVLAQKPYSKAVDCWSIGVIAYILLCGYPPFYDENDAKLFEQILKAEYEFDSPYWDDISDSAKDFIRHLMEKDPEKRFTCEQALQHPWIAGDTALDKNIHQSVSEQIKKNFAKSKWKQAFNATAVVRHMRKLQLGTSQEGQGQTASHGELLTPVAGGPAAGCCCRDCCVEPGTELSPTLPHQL
Answers are plain numbers, in %.

Consider the following illustrative entries.
structure_notation=COc1cc(N2CCN(C)CC2)ccc1Nc1nc(N)c(C(=O)c2c(Cl)cccc2Cl)s1 measurement_type="kinase still bound, per cent of control" result_unit=% recorded_value=0.75
structure_notation=O=C(NC1CC1)c1cccc(-c2ccc3c(NC(=O)C4CC4)n[nH]c3c2)c1 measurement_type="kinase still bound, per cent of control" result_unit=% recorded_value=84
structure_notation=O=C1Nc2ccc(I)cc2/C1=C/c1cc(Br)c(O)c(Br)c1 measurement_type="kinase still bound, per cent of control" result_unit=% recorded_value=70
structure_notation=C=CC(=O)Nc1cc(NC(=O)c2ccc(C)c(NC(=O)c3ccno3)c2)cc(C(F)(F)F)c1 measurement_type="kinase still bound, per cent of control" result_unit=% recorded_value=88
structure_notation=CCN1CCN(Cc2ccc(Nc3ncc4c(n3)N(C)c3ccccc3C(=O)N4C)cc2C(F)(F)F)CC1 measurement_type="kinase still bound, per cent of control" result_unit=% recorded_value=78

Could I get kinase still bound, per cent of control for every one of these entries?
1. Cc1ccc(NC(=O)c2cccc(C(C)(C)C#N)c2)cc1Nc1ccc2ncn(C)c(=O)c2c1
2. Nc1ccc(-c2ccc3ncc4ccc(=O)n(-c5cccc(C(F)(F)F)c5)c4c3c2)cn1
3. CCC(=O)N1CCN(c2ccc(-n3c(=O)ccc4cnc5ccc(-c6cnc7ccccc7c6)cc5c43)cc2C(F)(F)F)CC1
4. Cc1ccc(C(=O)Nc2cccc(C(F)(F)F)c2)cc1Nc1cncc(C(N)=O)c1
5. COc1cc(C(=O)NC2CCN(C)CC2)ccc1Nc1ncc2c(n1)N(C1CCCC1)CCC(=O)N2C(C)C
6. C=CC(=O)Nc1cccc(Nc2nc(N[C@H]3CC[C@H](N(C)C)CC3)nc3c2ncn3C(C)C)c1
7. N#Cc1c(NC(=O)c2cccc3ccccc23)sc2c1CCCC2

1. 87
2. 82
3. 50
4. 100
5. 100
6. 93
7. 73

###

test system: KIT (human), P10721 [D816V]; experiment: KINOMEscan competition binding; conditions: compound 10.0 µM
Sequence (P10721 whole entry D816V, looked up): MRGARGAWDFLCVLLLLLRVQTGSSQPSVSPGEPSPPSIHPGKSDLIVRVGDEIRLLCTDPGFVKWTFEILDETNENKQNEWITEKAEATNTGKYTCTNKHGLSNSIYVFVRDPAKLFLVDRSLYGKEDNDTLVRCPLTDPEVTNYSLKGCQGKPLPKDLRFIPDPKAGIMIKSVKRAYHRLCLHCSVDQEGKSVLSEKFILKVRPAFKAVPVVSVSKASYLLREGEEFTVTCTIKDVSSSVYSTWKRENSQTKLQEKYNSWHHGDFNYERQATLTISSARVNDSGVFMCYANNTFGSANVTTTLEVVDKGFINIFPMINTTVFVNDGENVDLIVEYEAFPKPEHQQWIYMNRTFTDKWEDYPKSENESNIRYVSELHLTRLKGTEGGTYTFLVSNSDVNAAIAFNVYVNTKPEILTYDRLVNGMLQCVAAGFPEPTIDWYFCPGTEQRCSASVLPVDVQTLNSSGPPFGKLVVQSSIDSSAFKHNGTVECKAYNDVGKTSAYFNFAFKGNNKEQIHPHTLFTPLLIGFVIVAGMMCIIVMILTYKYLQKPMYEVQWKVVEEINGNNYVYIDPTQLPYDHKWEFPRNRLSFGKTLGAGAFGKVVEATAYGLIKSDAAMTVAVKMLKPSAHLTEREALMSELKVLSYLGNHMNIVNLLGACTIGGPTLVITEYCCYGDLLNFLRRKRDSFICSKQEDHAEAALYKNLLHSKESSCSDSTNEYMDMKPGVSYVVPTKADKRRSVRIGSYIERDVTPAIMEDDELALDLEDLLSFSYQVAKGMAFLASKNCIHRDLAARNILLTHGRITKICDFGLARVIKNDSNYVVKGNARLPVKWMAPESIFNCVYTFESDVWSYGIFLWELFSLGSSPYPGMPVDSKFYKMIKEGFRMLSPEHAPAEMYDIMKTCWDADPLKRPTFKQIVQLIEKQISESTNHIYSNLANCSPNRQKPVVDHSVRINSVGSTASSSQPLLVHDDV
Lab note: anything with kinase still bound, per cent of control below 50% is marked Condition met; values at 50% or higher are marked Condition not met.

compound=CCN1CCN(C(=O)Cc2ccc(Nc3ncc(F)c(Nc4ccc(C(=O)Nc5ccccc5Cl)cc4)n3)cc2)CC1 group_label="Condition met"
compound=CCN1CCN(Cc2ccc(Nc3ncc4c(n3)N(C)c3ccccc3C(=O)N4C)cc2C(F)(F)F)CC1 group_label="Condition met"
compound=Nc1ccc(-c2ccc3ncc4ccc(=O)n(-c5cccc(C(F)(F)F)c5)c4c3c2)cn1 group_label="Condition not met"
compound=C[C@@H](Oc1cc(-c2cnn(C3CCNCC3)c2)cnc1N)c1c(Cl)ccc(F)c1Cl group_label="Condition met"
compound="COc1cc(C)c(Sc2cnc(NC(=O)c3ccc(CNC(C)C(C)C)cc3)s2)cc1C(=O)N1CCN(C(C)=O)CC1 (configuration not stated)" group_label="Condition not met"
compound=CCN(CCO)CCCOc1ccc2c(Nc3cc(CC(=O)Nc4cccc(F)c4)[nH]n3)ncnc2c1 group_label="Condition met"

Hello, I'm reviewing records and need to know if kinase still bound, per cent of control of O=c1[nH]c2ccccc2n1C1CCN(Cc2ccc(-c3nc4cc5[nH]cnc5cc4nc3-c3ccccc3)cc2)CC1 is below 50%. Could you check? Condition not met

Hello, I'm reviewing records and need to know if kinase still bound, per cent of control of CCCS(=O)(=O)Nc1ccc(F)c(C(=O)c2c[nH]c3ncc(-c4ccc(Cl)cc4)cc23)c1F is below 50%. Could you check? Condition not met

Hello, I'm reviewing records and need to know if kinase still bound, per cent of control of C=CC(=O)Nc1cc(NC(=O)c2ccc(C)c(NC(=O)c3ccno3)c2)cc(C(F)(F)F)c1 is below 50%. Could you check? Condition not met

###

target: PRKG1 (human); assay: KINOMEscan competition binding; conditions: compound 10.0 µM
measurement_type: kinase still bound, per cent of control

Consider the following illustrative entries.
structure_notation=COc1cc(C(=O)NC2CCN(C)CC2)ccc1Nc1ncc2c(n1)N(C1CCCC1)CCC(=O)N2C(C)C measurement_type="kinase still bound, per cent of control" recorded_value=100%
structure_notation=CN(C)C/C=C/C(=O)Nc1cccc(Nc2ncc3c(n2)N(C)c2ccccc2C(=O)N3C)c1 measurement_type="kinase still bound, per cent of control" recorded_value=100%
structure_notation=C=CC(=O)Nc1cccc(Nc2nc(N[C@H]3CC[C@H](N(C)C)CC3)nc3c2ncn3C(C)C)c1 measurement_type="kinase still bound, per cent of control" recorded_value=100%
structure_notation=Cc1cc([C@@H](C)Nc2ccccc2C(=O)O)c2nc(N3CCOCC3)cc(=O)n2c1 measurement_type="kinase still bound, per cent of control" recorded_value=100%
structure_notation=OCCCNc1cc(-c2ccnc(Nc3cccc(Cl)c3)n2)ccn1 measurement_type="kinase still bound, per cent of control" recorded_value=100%

# next compound below
Returns the measured kinase still bound, per cent of control for the input compound. Input: Nc1ccc(-c2ccc3ncc4ccc(=O)n(-c5cccc(C(F)(F)F)c5)c4c3c2)cn1 83%

###

molecular target: IGF1R (human) (UniProt P08069); test: KINOMEscan competition binding; details: compound 10.0 µM
Sequence (P08069 whole entry, looked up): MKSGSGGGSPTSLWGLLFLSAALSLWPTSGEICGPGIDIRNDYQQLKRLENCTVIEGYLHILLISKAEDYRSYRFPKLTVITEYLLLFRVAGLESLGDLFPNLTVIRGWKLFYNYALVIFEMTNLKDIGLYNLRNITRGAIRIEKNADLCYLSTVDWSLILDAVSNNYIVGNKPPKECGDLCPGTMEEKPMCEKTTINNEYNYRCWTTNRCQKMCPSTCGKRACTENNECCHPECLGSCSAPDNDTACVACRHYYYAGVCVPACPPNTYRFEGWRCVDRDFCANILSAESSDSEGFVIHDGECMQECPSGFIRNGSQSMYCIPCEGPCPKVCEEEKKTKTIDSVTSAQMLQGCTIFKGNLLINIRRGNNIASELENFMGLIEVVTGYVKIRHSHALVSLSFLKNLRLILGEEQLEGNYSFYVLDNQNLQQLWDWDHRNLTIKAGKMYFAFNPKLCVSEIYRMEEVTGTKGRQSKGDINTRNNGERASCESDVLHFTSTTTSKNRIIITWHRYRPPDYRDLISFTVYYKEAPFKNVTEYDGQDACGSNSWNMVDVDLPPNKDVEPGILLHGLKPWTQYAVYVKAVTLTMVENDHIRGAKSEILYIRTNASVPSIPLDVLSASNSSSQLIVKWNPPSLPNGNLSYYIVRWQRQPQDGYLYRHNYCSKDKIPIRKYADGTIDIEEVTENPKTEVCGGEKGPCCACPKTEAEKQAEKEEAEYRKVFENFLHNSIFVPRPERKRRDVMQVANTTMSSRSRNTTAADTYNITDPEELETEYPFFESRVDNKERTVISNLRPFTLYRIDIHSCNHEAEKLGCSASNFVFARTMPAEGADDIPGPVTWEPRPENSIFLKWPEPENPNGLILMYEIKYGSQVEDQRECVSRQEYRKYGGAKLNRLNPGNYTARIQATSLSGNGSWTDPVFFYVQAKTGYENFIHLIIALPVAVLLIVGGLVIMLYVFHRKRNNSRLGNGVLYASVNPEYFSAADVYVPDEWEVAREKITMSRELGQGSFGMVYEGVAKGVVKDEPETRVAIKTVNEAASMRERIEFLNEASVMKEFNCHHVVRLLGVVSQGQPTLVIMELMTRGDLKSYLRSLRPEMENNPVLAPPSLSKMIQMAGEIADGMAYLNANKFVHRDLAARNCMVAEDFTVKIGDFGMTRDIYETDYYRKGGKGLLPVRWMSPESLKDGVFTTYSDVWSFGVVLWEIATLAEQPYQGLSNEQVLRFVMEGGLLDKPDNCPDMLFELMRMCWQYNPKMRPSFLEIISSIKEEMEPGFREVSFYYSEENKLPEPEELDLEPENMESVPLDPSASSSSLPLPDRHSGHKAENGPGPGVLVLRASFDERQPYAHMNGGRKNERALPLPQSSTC
measurement_type: kinase still bound, per cent of control (%)
Numbers only, in %.

compound=CCOc1cc2ncc(C#N)c(Nc3ccc(OCc4ccccn4)c(Cl)c3)c2cc1NC(=O)/C=C/CN(C)C result_unit=% recorded_value=100
compound=O=C(O)c1ccc(Nc2ncc3c(n2)-c2ccc(Cl)cc2C(c2c(F)cccc2F)=NC3)cc1 result_unit=% recorded_value=73
compound=CCN1CCN(Cc2ccc(Nc3ncc4c(n3)N(C)c3ccccc3C(=O)N4C)cc2C(F)(F)F)CC1 result_unit=% recorded_value=100
compound="COc1cc(C(=O)NC2CCN(C)CC2)ccc1Nc1ncc2c(n1)N(C1CCCC1)C(C)CC(=O)N2C (stereo not drawn)" result_unit=% recorded_value=32
compound=Cc1cc([C@@H](C)Nc2ccccc2C(=O)O)c2nc(N3CCOCC3)cc(=O)n2c1 result_unit=% recorded_value=100

Could I get kinase still bound, per cent of control for every one of these entries?
1. C=CC(=O)Nc1cc(NC(=O)c2ccc(C)c(NC(=O)c3ccno3)c2)cc(C(F)(F)F)c1
2. O=C(NOC[C@H](O)CO)c1ccc(F)c(F)c1Nc1ccc(I)cc1F
3. Nc1ccc(-c2ccc3ncc4ccc(=O)n(-c5cccc(C(F)(F)F)c5)c4c3c2)cn1

1. 63
2. 87
3. 100

###

Exercise: state measured kinase still bound, per cent of control for each of the molecules provided.
molecular target: PLK4 (human) (UniProt O00444); experiment: KINOMEscan competition binding; conditions: compound 10.0 µM
Sequence (O00444 whole entry, looked up): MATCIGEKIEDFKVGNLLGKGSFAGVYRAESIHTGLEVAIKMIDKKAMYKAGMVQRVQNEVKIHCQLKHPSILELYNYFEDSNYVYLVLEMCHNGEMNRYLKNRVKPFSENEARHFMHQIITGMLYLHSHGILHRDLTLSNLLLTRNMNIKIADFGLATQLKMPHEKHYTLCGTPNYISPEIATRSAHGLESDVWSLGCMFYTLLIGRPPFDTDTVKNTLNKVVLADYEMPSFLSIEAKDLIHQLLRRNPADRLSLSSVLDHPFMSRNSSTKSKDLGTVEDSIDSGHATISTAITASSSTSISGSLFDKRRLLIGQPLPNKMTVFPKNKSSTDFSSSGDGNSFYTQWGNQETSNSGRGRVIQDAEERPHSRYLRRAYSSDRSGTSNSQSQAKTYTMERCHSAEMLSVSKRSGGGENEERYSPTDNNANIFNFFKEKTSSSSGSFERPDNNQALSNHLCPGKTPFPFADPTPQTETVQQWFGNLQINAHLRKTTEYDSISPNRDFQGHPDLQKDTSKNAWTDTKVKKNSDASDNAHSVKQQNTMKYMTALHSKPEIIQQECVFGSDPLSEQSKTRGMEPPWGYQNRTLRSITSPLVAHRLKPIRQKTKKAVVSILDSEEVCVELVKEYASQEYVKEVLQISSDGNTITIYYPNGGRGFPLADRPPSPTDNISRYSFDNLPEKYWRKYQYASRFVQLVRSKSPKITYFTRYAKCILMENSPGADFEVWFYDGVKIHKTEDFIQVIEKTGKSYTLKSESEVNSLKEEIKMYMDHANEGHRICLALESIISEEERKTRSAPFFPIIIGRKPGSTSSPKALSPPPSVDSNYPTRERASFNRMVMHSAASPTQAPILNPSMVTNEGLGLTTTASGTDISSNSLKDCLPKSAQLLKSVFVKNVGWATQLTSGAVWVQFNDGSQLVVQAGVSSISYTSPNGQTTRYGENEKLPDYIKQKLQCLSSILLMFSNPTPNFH

Consider the following illustrative entries.
structure_notation=CCCS(=O)(=O)Nc1ccc(F)c(C(=O)c2c[nH]c3ncc(-c4ccc(Cl)cc4)cc23)c1F tested_target="PLK4 (human) (UniProt O00444)" recorded_value=48%
structure_notation=Cc1ccc(C(=O)Nc2cccc(C(F)(F)F)c2)cc1Nc1cncc(C(N)=O)c1 tested_target="PLK4 (human) (UniProt O00444)" recorded_value=100%
structure_notation=CCOc1cc2ncc(C#N)c(Nc3ccc(OCc4ccccn4)c(Cl)c3)c2cc1NC(=O)/C=C/CN(C)C tested_target="PLK4 (human) (UniProt O00444)" recorded_value=82%
structure_notation=C=CC(=O)Nc1cc(NC(=O)c2ccc(C)c(NC(=O)c3ccno3)c2)cc(C(F)(F)F)c1 tested_target="PLK4 (human) (UniProt O00444)" recorded_value=91%
structure_notation=C[C@@H](Oc1cc(-n2cnc3ccc(CN4CCN(C)CC4)cc32)sc1C(N)=O)c1ccccc1C(F)(F)F tested_target="PLK4 (human) (UniProt O00444)" recorded_value=97%

Checklist item: kinase still bound, per cent of control tested on PLK4 (human) (UniProt O00444), entry CCN1CCN(Cc2ccc(Nc3ncc4c(n3)N(C)c3ccccc3C(=O)N4C)cc2C(F)(F)F)CC1 , value? 0.1%
